# protocol.text: Pharmacokinetic study in rat plasma after oral administration of FKQJF extract (UFLC–MS/MS)
# Assay type: in vivo, Sprague-Dawley (SD) rats
# recorded.conditions: Sprague-Dawley, oral FKQJF extract, single dose 3.2 g/kg, mean ± SD, read-out: MRT0→t
readout.label: MRT last (h)

Would you please look over these solved cases?
compound	MRT last [h]
C=C1CC[C@@H]2[C@](C)(CO)CCC[C@@]2(C)[C@@H]1CCC1=CCOC1=O	7.3
O=C1C[C@@H](c2ccc(O)cc2)Oc2cc(O)cc(O)c21	6.67
COc1ccc2cc3[n+](cc2c1OC)CCc1cc2c(cc1-3)OCO2	8.04

P: COC(=O)c1ccc(O)cn1 [Analyte 2, 5-hydroxypicolinic acid methyl ester]
Q: O=Cc1ccc2n1C[C@@]1(C[C@H](O)[C@@H](CO)O1)OC2 [Analyte 4, 9-epi-acortatarin A]
query: Just curious, which one has the larger MRT last reading, P or Q ? Give the label of your selection.
result: P

Reference for the values: paper PMC7382147
